# Tested on: MS2 coat protein
# Method Description: apparent KD of MS2 coat protein; higher = weaker reporter binding
# Stated Conditions: Eterna round: R107; input ligand: theophylline 20 uM
Param threshold (20 nM) applies to apparent KD of MS2 coat protein; output Fulfilled when value >= threshold, Not fulfilled when value < threshold.

Please review the entries below; each comes with its answer.
• ACAUUUAACUGAAGGAGCGUGAUAAACAUGAGGAUCACCCAUGUACCAAAGAUUUUCAGAUCACAGGUAGGUCGCAGACUAAUGA [JR_ExcArginiB_Sub015] = Not fulfilled
• GAUAGUUGAAGGGAUACCAGCCUGGACAUGAGGAUCACCCAUGUAGCGUGUUUGAAACUGGGCCCUUGGCAGCCCAUAUUGUGUA [Same State - Theophylline B / A] = Not fulfilled
• GUACAUGAGGAUCACCCAUGUGGUAGGGAUACCAGCCAGAAGAAAGGCCCUUGGCAGCUUGUAUUUAGUGUGGGUUUGUUUGUUC [Exclusion - Theophylline A] = Fulfilled
• UAGUUGCUGACGGCCGCCACUAGAACAUGAGGAUCACCCAUGUAUUCUAGUGGACAUGGGUGGACUAGGACCGGGUCAGCAACAU [(Trp1)-(Ms2)-(T)'-(M)'-(Trp2)_Design9] = Fulfilled

Continue with the sequence presented below.
Prompt: Hi, just wondering whether CGGGUUAGGGCGGCCGCCACUGUGGCUACGGUACAUGAGGAUCACCCAUGUUUGUGGUUGAUCUACAGGACCGGGCCCUGACACG [Geusrean] shows apparent KD of MS2 coat protein of 20 nM or higher.
Response: Fulfilled

---

# Tested on: MS2 coat protein
# Method Description: apparent KD of MS2 coat protein; higher = weaker reporter binding
# Stated Conditions: Eterna round: R107; input ligand: theophylline 20 uM
# apparent KD of MS2 coat protein per record follows
Reply numerically in nM, unit not repeated.

* AAUGGGCGAGUAGAGCAUAAUUUCCACUCCCGAGGACCGGUACGGCCGCCACUCGUUCGCUCACAUGAGGAUCACCCAUGUGGUC [theeternabot_exclusion_MS2_Trp_A_17] | 32.3

Here is another sequence to look at.
Prompt: For AAAACCUCACCUGAGGAACACCCAGGUGAUACCAGCCUGGAAACAGGCCCUUGGCAGCACCAGGUCAUCAAAGAUGACCAAAUAA [TheoAX 25 #OpenEnded #AlternativeMS2] , what is its reported apparent KD of MS2 coat protein?
Response: 40.7

---

# System: K4 kissing-loop RNA reporter;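 also: bound reporter read as fluorescence of individual clusters on recovered sequencing chips by microscopy, with normalized cluster intensities fitted with a binding model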
# Method Description: apparent KD of K4 kissing-loop reporter; higher = weaker reporter binding
# Stated Conditions: Eterna round: R107; input ligand: FMN 200 uM
Observation Type: apparent KD of K4 kissing-loop reporter (nM)
Reply numerically in nM, unit not repeated.

- AUUUUCAAUUUAUUAUAUAACUUUUCAGAAGGAGCGUGGAAGUUCACAGGUAGGUCGCUGAAUAUAGGACUAGUGAUGUUAGUUA [JR_Nu_SSArginiA_Sub023]: 284
- ACGUAGUUCUAGGAUACCAGCCAAGGUGCCAGGACAAAAGUCCUGGCAGUCAGUGAUGUUGGCCCUUGGCAGCCUAGAACUACGA [Omei KL Theo B Exc B v8]: 176
- UAUAUAUGAUGUGAUACCAGUGAAAAGCCAGUGAUGUUGGUAGAACUGGUAUAUAAAUGGCACCCUUGGCAGCACAAUCACGUAU [#28 K4 Theophylline B Exclusion]: 119
- UCCUGCAAUCGACCACGAAAGUGGAUCGAUACCAGAGUCGAAAGACUCCCUUGGCAGCGAGUGAUGUUCGAAGCAGGUAAAUAAA [#SwitchBubble 22 #K4Late]: 520

Prompt: For UGUCAUUGGUCGGCCGCCACUUCAUAGAGAGUGAUGUUCUUUAAGACGGAUCGAAAGAUCUGUCGAAGGACCGGGACCGAUGACU [FiskerMod 10 - Jieux - Same State - Tryptophan B] , what is its reported apparent KD of K4 kissing-loop reporter?
Response: 924
